test system: K562; assay: NCI tumour cell line growth inhibition, 48 h
Activity calls are given as the source filed them. Rule as the data show it: active = GI50 up to about 1.1 µM and inactive = higher.
readout.type: GI50

O=C1C(Cl)=C(OCCCCl)C(=O)c2c(O)ccc(O)c21 :: 0.401 µM (active)
Cn1nc(-c2ccccc2)c2c(/C=C/c3ccc(Cl)cc3)onc2c1=O :: 40.8 µM (inactive)
Cc1nn(C)c2c1C(=O)N(C)CC(=O)N2C :: > 100 µM (inactive)
CC(C(=O)NCCNC(=O)CCCC(=O)N(C)O)C(=O)NCCNC(=O)CCCC(=O)N(C)O :: > 100 µM (inactive)
O=C1Cc2c(-c3cccs3)cc(-c3ccccc3)nc2-c2ccccc2N1 :: > 100 µM (inactive)

For the next question, use this molecule.
// sample Cc1c(NC(=S)NC(=O)c2ccc([N+](=O)[O-])cc2)c(=O)n(-c2ccccc2)n1C , its GI50 was > 100 µM (inactive)

====

test system: SNB-19; experiment: NCI tumour cell line growth inhibition, 48 h
The source made the active and inactive calls. Rule as the data show it: active = GI50 up to about 1.1 µM and inactive = higher.
Lab note: assign the record to one of 1 = active, -1 = inactive

N#CSC1CCCCNC1=O (configuration not stated) :: -1
CCc1cccc(CC)c1NC(=O)C1=C(C)NC(C)=C(C(=O)Nc2c(CC)cccc2CC)C1c1ccc([N+](=O)[O-])cc1 :: -1
CCCCOC(=O)C1C2CCC(O2)C1C(=O)OCCCC (configuration not stated) :: -1

# fetch the recorded call for C/C(=N\Nc1nc2ccccc2s1)c1ccncn1 here
-1

How did this test come out for N=C(N)SC(c1ccccc1)c1ccccc1 ?
-1

Name the outcome recorded for O=C1C=C(Nc2ccc(S(=O)(=O)Nc3nccs3)cc2)c2ccccc2C1=O in the assay.
-1

Kindly provide the recorded test outcome for the following compound: COc1ccc2[nH]c3c(C)c4ccncc4c(C)c3c2c1
1

====

For each of the compounds below, state its GI50.
test system: HCC 2998; test: NCI tumour cell line growth inhibition, 48 h
Active and inactive are the calls of the source. Cut-off read from the data, not from the text of the source: active = GI50 up to about 1.1 µM and inactive = higher.

Sample records with GI50:
c1ccc2c(c1)CC1COc3ccccc3C1O2 (stereo not drawn) :: 42.3 µM (inactive)
O=c1c2ccccc2[nH]c2c(Cl)cc(Cl)c(N3CCCCC3)c12 :: 31.9 µM (inactive)

// field: GI50; key: CCOC(=O)c1c(N)sc2c1C(C(=O)OCC)CC2 (stereo not drawn) ; value = > 100 µM (inactive)

====

tested on: CAKI-1; experiment: NCI tumour cell line growth inhibition, 48 h
Active and inactive are the calls of the source. Cut-off read from the data, not from the text of the source: active = GI50 up to about 1.1 µM and inactive = higher.
Entry note: the call must match one of Yes (active), No (inactive)

O=C1Nc2ccc([N+](=O)[O-])cc2/C1=N/Nc1ccc([N+](=O)[O-])cc1 :: No

Status in this test for CC(=O)OCC1OC(n2c(S)nc(-c3ccccc3)c(C#N)c2=O)C(OC(C)=O)C(OC(C)=O)C1OC(C)=O (stereo not given) ?
No

Please state the recorded outcome for this compound: COc1nc2c(c(=O)n1C)NC(C(O)C(O)CO)C=N2 (stereo not given)
No

Which result was noted for this compound in the test: CC(C)CC(N)C(=O)NC(CNC(CCC(N)=O)C(=O)NC(CC(C)C)C(=O)NC(CC(C)C)C(=O)O)Cc1ccc2ccccc2c1 (stereo not given)
No

I'd appreciate the recorded outcome for Cc1cccc2nc3cc(O)cc(O)c3c(O)c12 from this test.
No

Please indicate how the test categorized CC1=NN(C(=O)Cc2ccccc2)C(=O)/C1=C\c1cccc(O)c1 .
No

Value source: ChEMBL document CHEMBL1201862
